Target: Beta-secretase 1 (Homo sapiens, UniProt P56817)
Sequence (P56817 whole entry): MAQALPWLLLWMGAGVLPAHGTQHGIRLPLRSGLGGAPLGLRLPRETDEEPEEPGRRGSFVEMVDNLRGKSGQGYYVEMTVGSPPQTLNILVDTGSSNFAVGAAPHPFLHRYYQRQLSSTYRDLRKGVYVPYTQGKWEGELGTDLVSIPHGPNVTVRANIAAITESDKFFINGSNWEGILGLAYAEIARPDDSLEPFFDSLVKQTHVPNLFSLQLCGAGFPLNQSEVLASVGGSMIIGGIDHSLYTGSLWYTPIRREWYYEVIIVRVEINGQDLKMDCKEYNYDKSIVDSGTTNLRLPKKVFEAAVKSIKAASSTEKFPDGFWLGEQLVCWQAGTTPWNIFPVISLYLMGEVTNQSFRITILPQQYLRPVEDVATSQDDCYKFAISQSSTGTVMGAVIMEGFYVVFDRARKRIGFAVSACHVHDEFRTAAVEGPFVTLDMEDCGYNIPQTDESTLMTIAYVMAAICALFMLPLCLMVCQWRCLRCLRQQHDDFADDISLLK
Value kind: IC50 (µM)
One number for each entry, in µM.

Query block: Which measured IC50 value corresponds to NC1=NC(c2ccc(F)cc2)CC(=O)N1 (stereo unspecified) ?
Result block: 18

---

Assay: Cmax in CD-1 mouse brain at 10 mg/kg, po and measured after 30 mins by LC-MS/MS analysis
Assay type: ADME, organism-based
Set-up: dose 10 mg/kg, time 30 min, route po
Value kind: Cmax (ng/mL)
One number for each entry, in ng/mL.

Query block: Which measured Cmax value corresponds to NC1=NC(c2ccc(F)cc2)CC(=O)N1 (stereo unspecified) ?
Result block: 0.613
